tested on: BT-549 breast; assay: NCI-60 one-dose screen, 48 h (100 = growth as untreated, 0 = no growth, -100 = all killed); conditions: 10 µM unless noted
This is part of a sample that, as a whole, favours compounds with a hit. Of some 83,000 tested, about 20% had one in any assay.
result_type: growth (%)
Express it in %; write the number only.

IN: Reported growth for COc1ccc(CC(C#N)c2ccc(Cl)cc2)cc1 (stereo not given) : what is it?
OUT: 74.9

IN: Reported growth for `Cn1c(=O)c(C#N)c(-c2ccco2)n2c(S(=O)(=O)Cc3ccccc3)nnc12` : what is it?
OUT: 73.7

IN: Reported growth for `O=C(O)c1cc([N+](=O)[O-])ccc1Br` : what is it?
OUT: 91.5

IN: Reported growth for `Cc1ccc(Cn2c(O)c(N=NC(=O)c3ccc(S(N)(=O)=O)cc3)c3ccccc32)cc1` : what is it?
OUT: 102

IN: Reported growth for `COc1cc(NN=C(c2ccc(O)cc2)c2ccc(O)cc2)c([N+](=O)[O-])cc1[N+](=O)[O-]` : what is it?
OUT: 111

====

test system: MDA-MB-231 breast; experiment: NCI-60 one-dose screen, 48 h (100 = growth as untreated, 0 = no growth, -100 = all killed); conditions: 10 µM unless noted
About 83,000 compounds went through this panel and 20% of them were active in at least one assay; those are over-represented in the sample as a whole. Activity calls are given as the source filed them. How the source made its calls: active means growth percent below 10; inactive means the rest.
Exercise: for every item that follows, state its recorded growth.

IN: Lookup: growth / MDA-MB-231 breast / `COC(=O)[C@H](CC(C)C)NC(=O)NC(=O)NC(=O)CI`
OUT: 33.4% (inactive)

IN: Lookup: growth / MDA-MB-231 breast / `O=C(Nc1cccc(C2=NCCN2)c1)c1cccc(C(=O)Nc2cccc(C3=NCCN3)c2)c1`
OUT: 101% (inactive)

IN: Lookup: growth / MDA-MB-231 breast / `O=C(Nc1ccc(C(=O)/C=C/c2ccc(N3CCOCC3)cc2)cc1)Nc1ccc([N+](=O)[O-])cc1`
OUT: 94.8% (inactive)

IN: Lookup: growth / MDA-MB-231 breast / `CCOC(=O)c1cc(C(=O)c2ccc(OC)c(OC)c2)n2ccc(-c3ccccn3)cc12`
OUT: 58.1% (inactive)

IN: Lookup: growth / MDA-MB-231 breast / O=c1[nH]cnc2c1ccn2C1OC(CO)C(O)C1O (stereo not given)
OUT: 45.3% (inactive)

====

tested on: U251 CNS; test: NCI-60 one-dose screen, 48 h; settings: 10 µM unless noted
Compounds without any hit were thinned out: in the full panel of roughly 83,000, 20% have a hit. Active and inactive are the calls of the source. Rule for the calls: active = growth percent below 10; inactive = the rest.
Please answer using one outcome listed in t for active, f for inactive

IN: Given `CSc1nc2c(c(=O)n1C)C1(C(=O)N(Cc3ccccc3)c3ccccc31)c1c(nc(SC)n(C)c1=O)N2` , state the outcome it received in this test.
OUT: f

IN: Given `Cc1ccc(NC(=O)N[C@@H](Cc2cc(F)cc(F)c2)C(=O)N[C@@H]2C(=O)N3CCC[C@H]3C(=O)N3CCOC[C@H]3C(=O)N[C@@H](C)C(=O)N3C[C@H](C)C[C@H]3C(=O)O[C@H]2C)cc1` , state the outcome it received in this test.
OUT: f

IN: Given `CN(C)Cc1ccc[nH]1` , state the outcome it received in this test.
OUT: f

IN: Given `C=C(C)[C@@H]1CC[C@]2(C)[C@H](CC=C3[C@@H]4[C@@H](C)[C@H](C)CC[C@]4(C(N)=O)CC[C@]32C)[C@@]1(C)CCC#N` , state the outcome it received in this test.
OUT: t

IN: Given `COc1ccc(-c2nc3ccccn3c2/C=C/C(=O)c2cc(OC)c(OC)c(OC)c2)cc1OC` , state the outcome it received in this test.
OUT: t

IN: Given `Cc1nc(-c2ccccc2)sc1CC#N` , state the outcome it received in this test.
OUT: f

IN: Given `CC[C@]12C=CCN3CC[C@@]4(c5ccc(OC)cc5N(C)[C@H]4[C@@](O)(C(=O)OC)[C@@H]1OC(=O)CCC(=O)O[C@H]1CC[C@H]4[C@@H]5CCC6=CC(=O)CC[C@@H]6[C@H]5CC[C@]14C)[C@@H]32` , state the outcome it received in this test.
OUT: f

IN: Given O=C1NC(=O)C(Cc2ccc(OCc3ccc(-c4cc(F)c(F)c(F)c4)cc3)cc2)S1 (stereo not given) , state the outcome it received in this test.
OUT: f

IN: Given `O=[N+]([O-])c1cc([N+](=O)[O-])c(C(F)(F)F)cc1NN=C(c1ccc(O)cc1)c1ccc(O)cc1` , state the outcome it received in this test.
OUT: f

IN: Given `N#CCCc1c[nH]c2ccccc12` , state the outcome it received in this test.
OUT: f

IN: Given `COc1ncc(-c2ccc3nc(N)n(-c4ccccc4C(F)(F)F)c(=O)c3c2)cc1S(=O)(=O)Nc1ccc(F)cc1F` , state the outcome it received in this test.
OUT: f

IN: Given `Oc1cc(Nc2ccnc3cc(Cl)ccc23)c2ncccc2c1` , state the outcome it received in this test.
OUT: f

IN: Given `Nc1cc(Cl)cc2cccnc12` , state the outcome it received in this test.
OUT: f

IN: Given `Cc1ccc(-c2cn(C/C=C3\C=CN(S(=O)(=O)c4ccccc4)CC3)nn2)cc1` , state the outcome it received in this test.
OUT: f

IN: Given `Cc1ccc2c(n1)C(=O)C(Cl)=C(Nc1ccc(N3CCN(C)CC3)cc1)C2=O` , state the outcome it received in this test.
OUT: t

IN: Given `CCOC(=O)c1cnc2ccc(Br)cc2c1Nc1cccc(S(N)(=O)=O)c1` , state the outcome it received in this test.
OUT: f

IN: Given CCCCCCCCN(CCCCCCCC)CC(O)c1ccc(Cl)c(C)c1Cl (stereo not given) , state the outcome it received in this test.
OUT: f

IN: Given `C=C(C)[C@@H]1CC[C@]2(COCCCN)CC[C@]3(C)[C@H](CC[C@@H]4[C@@](C)(CCCNCCCN)[C@H](C(=C)C)CC[C@]43C)[C@@H]12` , state the outcome it received in this test.
OUT: t

IN: Given `Cn1cc(-c2noc(C(=O)c3cn(C)c4ncc(Br)cc34)n2)c2ccccc21` , state the outcome it received in this test.
OUT: f

IN: Given CCC(C)[C@H](NC(=O)NC(=O)NC(=O)CI)C(=O)OC (stereo not given in full) , state the outcome it received in this test.
OUT: f

IN: Given `O=C1/C(=C/c2cccc(OCc3ccccc3)c2)Oc2cc(OCCN3CCCCC3)ccc21` , state the outcome it received in this test.
OUT: f

IN: Given CCCCCC1CCCCN1C(=O)OCCCC (stereo not given) , state the outcome it received in this test.
OUT: f

IN: Given `Cc1ccc(NC(=O)N[C@@H](Cc2cc(F)cc(F)c2)C(=O)N[C@@H]2C(=O)N3CCC[C@H]3C(=O)N3CCCC[C@H]3C(=O)N[C@@H](C)C(=O)N3C[C@H](C)C[C@H]3C(=O)O[C@H]2C)cc1` , state the outcome it received in this test.
OUT: f

IN: Given `Cn1cc(-c2nnc(-c3cn(C)c4ncc(Br)cc34)s2)c2cc(Br)ccc21` , state the outcome it received in this test.
OUT: f

IN: Given `Cn1cc(-c2nnc(-c3cn(C)c4ncccc34)o2)c2ccccc21` , state the outcome it received in this test.
OUT: f

IN: Given `O=C(NCc1ccc(Cn2c(=O)sn(-c3ccccc3)c2=O)cc1)OCc1ccc2c(Br)cc(Br)c(O)c2n1` , state the outcome it received in this test.
OUT: t

IN: Given O=C(O)CC1CCCCC1c1ccccc1 (stereo not given) , state the outcome it received in this test.
OUT: f

IN: Given `COc1cc(-c2nc(SCCC(C)C)nc(Nc3ccc(S(N)(=O)=O)cc3)c2C#N)cc(OC)c1OC` , state the outcome it received in this test.
OUT: f

IN: Given `COc1ccc(-c2cc(-c3ccc(Cl)cc3)nc(NCCCCNc3ccnc4cc(Cl)ccc34)n2)cc1` , state the outcome it received in this test.
OUT: f

IN: Given `O=S(=O)(c1ccc(N/N=C\c2ccccc2Cl)cc1)c1ccc(N/N=C/c2ccccc2Cl)cc1` , state the outcome it received in this test.
OUT: f

IN: Given `CC(C)=CC/C=C(/C)[C@H]1CC[C@]2(C)[C@@H]1CC[C@@H]1[C@@]3(C)CCC(=O)NC(C)(C)[C@@H]3CC[C@]12C` , state the outcome it received in this test.
OUT: t

IN: Given `Cn1cc(-c2noc(-c3cn(C)c4ncc(F)cc34)n2)c2ccccc21` , state the outcome it received in this test.
OUT: f

IN: Given `COc1ccc(N(c2nc(-c3ccc([N+](=O)[O-])cc3)cs2)C(C)C)cc1` , state the outcome it received in this test.
OUT: f

IN: Given COc1ccc(C2CC(c3cc(OC)c(OC)c(OC)c3)=NN2C(C)=O)cc1OCC(=O)Nc1nc2ccc(C(F)(F)F)cc2s1 (stereo not given) , state the outcome it received in this test.
OUT: f

IN: Given `Cc1ccc(-c2cc(-c3ccc(C)cc3)nc(NCCNc3ccnc4cc(Cl)ccc34)n2)cc1` , state the outcome it received in this test.
OUT: t
